System: Jurkat
method notes: Cytotoxicity against human Jurkat cells assessed as induction of cell death after 48 hrs by MTT assay
Format: functional, cell-based
property measured: EC50 (µM)
// note: answer is a bare numeric in µM

Example entries begin here.
{"molecule": "CC(C)C(C1=C(O)CC(C)(C)CC1=O)c1c(O)c(C(C2=C(O)CC(C)(C)CC2=O)C(C)C)c(O)c(C(C2=C(O)CC(C)(C)CC2=O)C(C)C)c1O (stereo not given)", "numeric readout": 6.2}
{"molecule": "CC(C)C(C1=C(O)CC(C)(C)CC1=O)c1c(O)c(C(=O)c2ccccc2)c(O)c(C(C2=C(O)CC(C)(C)CC2=O)C(C)C)c1O (stereo not given)", "numeric readout": 4.4}
{"molecule": "CC(C)CC(=O)c1c(O)c(C(CC(C)C)C2=C(O)C(C)(C)C(=O)C(C)(C)C2=O)c(O)c(C(CC(C)C)C2=C(O)C(C)(C)C(=O)C(C)(C)C2=O)c1O (stereo not given)", "numeric readout": 19.2}
{"molecule": "CC(=O)c1c(O)c(C(C2=C(O)CC(C)(C)CC2=O)C(C)C)c(O)c(C(C2=C(O)CC(C)(C)CC2=O)C(C)C)c1O (stereo not given)", "numeric readout": 7.5}

Next up:
query: Answer with the recorded EC50 of `CC(C)C(=O)c1c(O)c([C@H](C2=C(O)C(C)(C)C(=O)C(C)(C)C2=O)C(C)C)c(O)c([C@H](C2=C(O)C(C)(C)C(=O)C(C)(C)C2=O)C(C)C)c1O` only.
result: 2.4

====

study target: Prostaglandin E synthase (Homo sapiens, UniProt O14684)
Sequence (O14684 whole entry): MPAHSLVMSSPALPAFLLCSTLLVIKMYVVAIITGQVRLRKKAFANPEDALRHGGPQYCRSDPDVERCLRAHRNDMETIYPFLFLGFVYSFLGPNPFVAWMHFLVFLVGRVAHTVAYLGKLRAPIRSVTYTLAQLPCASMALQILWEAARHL
method notes: Inhibition of mPGES-1 in microsomal membranes isolated from interleukin-1beta-stimulated human A549 cells using PGH2 as substrate assessed as PGE2 formation preincubated for 15 mins followed by substrate addition measured after 1 min by RP-HPLC analysis
Categorized via IC50: bin 0 = under 600 nM, bin 1 = from 600 nM up to 1000 nM, bin 2 = 1000 nM and over

Solved entries:
{"molecule": "CCCCCC(=O)c1c(O)c(C(CC(C)C)C2=C(O)CC(C)(C)CC2=O)c(O)c(C(CC(C)C)C2=C(O)CC(C)(C)CC2=O)c1O (centres undefined)", "study target": "Prostaglandin E synthase (Homo sapiens, UniProt O14684)", "answer label": "bin 1"}
{"molecule": "CC(C)C(C1=C(O)C(C)(C)C(=O)C(C)(C)C1=O)c1c(O)c(C(=O)c2ccccc2)c(O)c(C(C2=C(O)C(C)(C)C(=O)C(C)(C)C2=O)C(C)C)c1O (centres undefined)", "study target": "Prostaglandin E synthase (Homo sapiens, UniProt O14684)", "answer label": "bin 2"}
{"molecule": "CCCCCC(=O)c1c(O)c([C@@H](CC(C)C)C2=C(O)C(C)(C)C(=O)C(C)(C)C2=O)c(O)c([C@H](C2=C(O)C(C)(C)C(=O)C(C)(C)C2=O)C(C)C)c1O", "study target": "Prostaglandin E synthase (Homo sapiens, UniProt O14684)", "answer label": "bin 0"}
{"molecule": "CC(C)CC(=O)c1c(O)c(C(C2=C(O)c3ccccc3C2=O)c2ccccc2)c(O)c(C(C2=C(O)c3ccccc3C2=O)c2ccccc2)c1O (centres undefined)", "study target": "Prostaglandin E synthase (Homo sapiens, UniProt O14684)", "answer label": "bin 1"}
{"molecule": "CC(C)C(=O)c1c(O)cc(O)c(C(C2=C(O)C(C)(C)C(=O)C(C)(C)C2=O)C(C)C)c1O (centres undefined)", "study target": "Prostaglandin E synthase (Homo sapiens, UniProt O14684)", "answer label": "bin 1"}
{"molecule": "CCCCCC(=O)c1c(O)cc(O)c(C(C2=C(O)C(C)(C)C(=O)C(C)(C)C2=O)C(C)C)c1O (centres undefined)", "study target": "Prostaglandin E synthase (Homo sapiens, UniProt O14684)", "answer label": "bin 0"}
{"molecule": "CCCCCC(=O)c1c(O)c(C(C2=C(O)CC(C)(C)CC2=O)C(C)C)c(O)c(C(C2=C(O)CC(C)(C)CC2=O)C(C)C)c1O (centres undefined)", "study target": "Prostaglandin E synthase (Homo sapiens, UniProt O14684)", "answer label": "bin 0"}
{"molecule": "CC(C)C(=O)c1c(O)cc(O)c2c1OC1=C(C(=O)C(C)(C)C(=O)C1(C)C)[C@@H]2C(C)C", "study target": "Prostaglandin E synthase (Homo sapiens, UniProt O14684)", "answer label": "bin 2"}

query: Record CC(=O)c1c(O)c(C(C2=C(O)CC(C)(C)CC2=O)C(C)C)c(O)c(C(C2=C(O)CC(C)(C)CC2=O)C(C)C)c1O (centres undefined) — which class?
result: bin 2

query: Record CC(C)C(C1=C(O)CC(C)(C)CC1=O)c1c(O)c(C(C2=C(O)CC(C)(C)CC2=O)C(C)C)c(O)c(C(C2=C(O)CC(C)(C)CC2=O)C(C)C)c1O (centres undefined) — which class?
result: bin 1

query: Record CC(C)C(C1=C(O)CC(C)(C)CC1=O)c1c(O)c(C(=O)c2ccccc2)c(O)c(C(C2=C(O)CC(C)(C)CC2=O)C(C)C)c1O (centres undefined) — which class?
result: bin 2

query: Record CC(C)CC(C1=C(O)C(C)(C)C(=O)C(C)(C)C1=O)c1c(O)c(C(=O)C(C)C)c(O)c(C(CC(C)C)C2=C(O)C(C)(C)C(=O)C(C)(C)C2=O)c1O (centres undefined) — which class?
result: bin 0
